Data origin, for the record: patent US20210292393A1

# experimental_target: SARS-CoV-2 full-length spike protein on pseudotyped lentivirus (SARS-CoV-2, UniProt P0DTC2 14-1273)
# measurement_description: cell-based or functional assay
The binders listed here are annotated with their Pseudo-neutralization IC50.
value_type: Pseudo-neutralization IC50 (µg/mL)

>>> observed("anti-SARS-CoV-2 antibody 1009 (antibody, V domains shown) VH: QLQLQESGPGLVKPSQTLSLTCTVSGGSISSGSYYWSWIRQPAGKGLEWIGSIYTSGSTYYNPSLKSRVTISVDTSKNQFSLKLSSVTAADTAVYYCARKNWLQGSFDYWGQGTLVIVSS VL: NFMLTQPHSVSESPGKTVTISCTRSSGSIANNYVQWYQQRPGSAPTTVIYEDNQRPSGVPDRFSGSIDSSSNSASLTISGLKTEDEADYYCQSYDTSNHGVFGGGTKLTVL")
0.17
>>> observed("anti-SARS-CoV-2 antibody 1000 (antibody, V domains shown) VH: EVQLVESGGGLVQPGRSLRLSCAASGFTFDDYAMHWVRQAPGEGLEWVSGISWNSGSIGYADSVKGRFTISRDNAKNSLYLQMNSLRAEDTALYYCAKDTRFSFGTIAAAVSGYGMDVWGQGTTVTVSS VL: QSALTQPASVSGSPGQSITISCTGTSSDVGIFNLVSWYQQHPGKAPKLMIYEVTKRPSGVSNRFSGSKSGNTASLTISGLQAEDEADYYCCSYAGSYVFGTGTKVTVL")
0.006
>>> observed("anti-SARS-CoV-2 antibody 989 (antibody, V domains shown) VH: QVQLQESGPGLVKPSQTLSLTCTVSGGSISSGSYYWSWIRQPAGKGLEWIGRIYTSGSTNYNPSLKSRVTMSVDTSKNHFSLKLRSVTAADTAVYYCARGIAVAGDDDYYYYYGLDVWGQGTTVTVSS VL: SYELTQPPSVSVSPGQTARITCSGDALPKQYAYWYQQKPGQAPVMVINKDSERPSGIPERFSGSSSGTTVTLTISGVQAEDEADYYCHSADSSGTYWVFGGGTKLTVL")
0.19
>>> observed("anti-SARS-CoV-2 antibody 1091 (antibody, V domains shown) VH: EVQLVESGGGLVKPGGSLRLSCAASGFPFITYSMNWVRQAPGKGLEWVSSISRNSDYIYYADSVRGRVTISRDNAENSLYLQMHSLRAEDTAVYYCARDVVRSGNYYIPRHGMDVWGRGTTVTVSS VL: QSVLTQPPSASGTPGQRVTISCSGTSSNIGSNTVNWYQQLPETAPKLLIYGTDQRPSGVPDRFSGSKSGTSASLAISRLQSEDEADYYCATRDDSLSGPVFGGGTQLTVL")
0.016
